experimental-protocol: self-splicing fitness, log relative to wild type (ln ratio); higher = more splicing; Tetrahymena group I intron in knt gene, E. coli kanamycin selection, DiMSum; sequences stand for … in CUCUCU…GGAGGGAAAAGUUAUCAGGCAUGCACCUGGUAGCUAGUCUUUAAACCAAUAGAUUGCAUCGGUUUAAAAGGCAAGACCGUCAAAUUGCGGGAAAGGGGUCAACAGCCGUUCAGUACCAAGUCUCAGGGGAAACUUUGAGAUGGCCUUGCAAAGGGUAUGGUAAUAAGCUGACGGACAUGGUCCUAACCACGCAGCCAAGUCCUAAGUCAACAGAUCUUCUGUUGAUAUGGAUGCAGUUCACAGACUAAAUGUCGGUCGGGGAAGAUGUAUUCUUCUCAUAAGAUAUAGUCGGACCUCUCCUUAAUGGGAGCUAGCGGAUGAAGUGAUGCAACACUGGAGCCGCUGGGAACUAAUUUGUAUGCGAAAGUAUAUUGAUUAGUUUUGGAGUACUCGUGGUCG;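 also: selection with 25 µg/mL kanamycin versus none on LB agar overnight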
run-parameters: 37 °C
Each entry below carries its reported self-splicing fitness (ln).
// return a plain number; no unit text

GCCGAGCAAUAUUACGGUAU; -0.878
CCGGAGCAAUAUUACGUUUA; -1.99
UCAAAGCAAUAUUACGGUGU; -1.31
AUCUAGCAAUAUUACGCGGA; -2.53
GUGGAGCAAUAUUACGAGCC; -1.59

What does the data say about its self-splicing fitness (ln)? Entry: `CUCCAGCAAUAUUACGCGAA` -1.77

Data credit: the supplement of paper PMC7877785
